system: NCI-H23; test: NCI tumour cell line growth inhibition, 48 h
Active and inactive are the calls of the source. Rule as the data show it: active = GI50 up to about 1.1 µM and inactive = higher.
Respond only with the outcome that fits, drawn from active, inactive

Some solved entries appear below for comparison.
compound: COC(=O)C1=CSC2(S1)C(C(=O)OC)=CSc1c2ssc1=O (centres undefined)
study.system: NCI-H23
qualitative.label: inactive

compound: CC(C)(C)OC(=O)N1CC(COS(C)(=O)=O)c2ccc(O)cc21 (centres undefined)
study.system: NCI-H23
qualitative.label: inactive

compound: CC1=C(N2CC2)C(=O)c2nc3n(c2C1=O)CCC3O (centres undefined)
study.system: NCI-H23
qualitative.label: active

compound: Cc1cccc2c(N)c3cccc(C(=O)NCC[N+](C)(C)Cc4ccc(S(C)(=O)=O)cc4)c3nc12
study.system: NCI-H23
qualitative.label: inactive

compound: COc1ccc(/C=c2/sc3n(c2=O)NC2(CCC(C)CC2)NN=3)cc1 (centres undefined)
study.system: NCI-H23
qualitative.label: inactive

Input: Hey, what did the test say about N#Cc1c(-c2ccccc2)[nH]c(=O)n(C2OC(CO)C(O)C(O)C2O)c1=O (centres undefined) ?
Output: inactive

Input: Could you please tell me the result logged for `O=C(CCC1C(=O)NC(=S)NC1=O)c1ccc2ccccc2c1` in this assay?
Output: inactive

Input: GET /call?item= `CNCC(=O)Nc1ccc2c(c1)C(=O)c1ccc(NC(=O)CNC)cc1C2=O` returns the recorded outcome of this test.
Output: inactive

Input: What did this assay record as the result for `Cc1nn2c(C(=O)N/N=C/c3ccc([N+](=O)[O-])cc3)c(C)nc2s1` ?
Output: inactive

Input: Entry `CCn1c(SCC(=O)NNC(=S)Nc2ccc(C)cc2)nc2ccccc2c1=O` : call = ?
Output: inactive
